Taken from patent US20250289893A1.

Molecular target: T1, human CD1a expressed on cells (human, UniProt P06126 17-327; P61769 21-119)
T1 construct: also called HEK - CD1a; C1R - CD1a
Experiment: flow cytometry, C1R cells, 0.0316 µg/ml antibody
Measure: Fluorescence Intensity Geomean (normalized to background) (fold over background)
State just the number; it will be interpreted in fold over background.

Reported Fluorescence Intensity Geomean (normalized to background) ( 77A (VR11851) (antibody, V domains shown, also called OX77a; antibody 77a) VH: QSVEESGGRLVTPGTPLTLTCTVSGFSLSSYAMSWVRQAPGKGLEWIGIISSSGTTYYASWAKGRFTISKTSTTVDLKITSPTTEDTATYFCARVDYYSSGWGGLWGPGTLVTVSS VL: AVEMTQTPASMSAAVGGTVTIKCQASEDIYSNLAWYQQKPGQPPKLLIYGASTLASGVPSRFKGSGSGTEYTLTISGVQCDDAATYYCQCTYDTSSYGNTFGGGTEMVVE ) = 17
